System: Danio rerio Tg(wt1b:EGFP) embryo, pronephros
TEST SUMMARY: glomerular width (mean of left and right), fold change vs DMSO control; higher = wider glomerulus
CONDITION CONTEXT: 25 µM; exposure: 24-48 hpf
Where a name gives a salt, the structure may show the parent alone.
So basically: glomerular width at 1 or higher? That is criterion met. Lower than 1? That is criterion not met.

Please check the record Cc1nnc(NS(=O)(=O)c2ccc(N)cc2)s1 and state if its glomerular width is at or above 1.
criterion met

Please check the record CCCC(=O)Nc1ccc(OCC(O)CNC(C)C)c(C(C)=O)c1 (stereo not drawn) [Acebutolol hydrochloride] and state if its glomerular width is at or above 1.
criterion met

Please check the record CC(C)/N=c1\cc2n(-c3ccc(Cl)cc3)c3ccccc3nc-2cc1Nc1ccc(Cl)cc1 and state if its glomerular width is at or above 1.
criterion met

Please check the record CC(=O)N(CC(O)CO)c1c(I)c(C(=O)NCC(O)CO)c(I)c(C(=O)NCC(O)CO)c1I (stereo not drawn) [Iohexol] and state if its glomerular width is at or above 1.
criterion not met

Please check the record CC[C@@]1(O)C(=O)OCc2c1cc1n(c2=O)Cc2cc3c(CN(C)C)c(O)ccc3nc2-1 and state if its glomerular width is at or above 1.
criterion not met
